Below are IC50 values measured for ERα (Homo sapiens, UniProt P03372).

Cc1oc2cc(O)ccc2c(=O)c1-c1cc2ccccc2o1 ... > 1000 µM

// moving on: another record for IC50
// IC50 value for O=c1oc2cc(OCc3cccc(O)c3)ccc2c2c1CCC2 : > 1000 µM
